Quick reference for melting point among some compounds

// below: answered compounds
Fc1cccc2oc(CCC#Cc3ccccn3)nc12 : 89 to 89.5 °C
O=C(CCC#Cc1cccc(CF)n1)Nc1ccc(F)cc1 : 110 °C
O=C(CCC#Cc1ccccn1)Nc1cccc(F)c1 : 110 to 114 °C
Cc1c(-c2ccc(F)cc2)nnn1CCC#Cc1ccccn1 : 130 to 131 °C
Fc1cccnc1C#CCCc1nc2ccccc2o1 : 86 to 88 °C
FCc1cccc(C#CCCc2cn3cccc(Cl)c3n2)n1 : 73 to 74.5 °C

Query: If you can, please state the reported melting point value of FCc1cccc(C#CCCc2ccc3ccccc3n2)n1 .
Reply: 70.2 to 74.3 °C

Query: Which melting point value is on record for O=c1c2ccccc2ccn1CCC#Cc1ccccn1 ?
Reply: 85 to 90 °C

Query: State the recorded melting point for this entry: Cn1c(CCC#Cc2cccc(CF)n2)nc2ccccc21
Reply: 95.3 to 96.3 °C

Query: I am curious: what melting point value has been reported for Clc1ccc(-c2noc(CCC#Cc3ccccn3)n2)cc1 ?
Reply: 75 to 77 °C

Query: Field request: melting point | item: Cc1cc(F)ccc1NC(=O)CCC#Cc1ccccn1
Reply: 110 to 114 °C

Query: Look at this compound and give its reported melting point. FCc1cccc(C#CCCc2cnc3ccccc3n2)n1
Reply: 136 °C (dec.)

Query: Given FCc1nc(C#CCCc2cn3cc(F)ccc3n2)cs1 , state its recorded melting point.
Reply: 82 to 84 °C

Query: # input compound: FCc1cccc(C#CCCc2cn3cccc(OCc4ccccc4)c3n2)n1 ; wanted: its melting point
Reply: 92 to 94 °C

Query: Find the recorded melting point belonging to O=C(CCC#Cc1ccccn1)Nc1ccc(F)cc1F and report it.
Reply: 132 to 133.2 °C

Query: // lookup melting point for Fc1cc(F)c2nc(CCC#Cc3ccccn3)cn2c1
Reply: 130 to 131 °C

Query: Return reported melting point; argument: Cn1c(CCC#Cc2cccc(CF)n2)nc2c(F)cc(F)cc21
Reply: 103 to 104 °C

Query: What melting point value was documented for this compound, Fc1cc2nn(CCC#Cc3ccccn3)nc2cc1F ?
Reply: 131 to 132 °C

Query: Quick one: melting point for Fc1ccc(Cl)c2oc(CCC#Cc3ccccn3)nc12 ?
Reply: 102 to 103 °C

Query: # get_value(readout='melting point', item= C(#Cc1ccccn1)CCc1nc2ccccc2s1 )
Reply: 98.5 to 99.4 °C

Query: Please give the measured melting point for this compound: CNc1cccc(C#CCCn2nc3ccccc3n2)n1
Reply: 150 to 154 °C

Query: Given C(#Cc1ccccn1)CCc1nc2ccccc2o1.Cl , state its recorded melting point.
Reply: 143.5 to 145 °C

====

- tested-system: mGluR5 (Rattus norvegicus)
- Sequence (P31424 21-1203): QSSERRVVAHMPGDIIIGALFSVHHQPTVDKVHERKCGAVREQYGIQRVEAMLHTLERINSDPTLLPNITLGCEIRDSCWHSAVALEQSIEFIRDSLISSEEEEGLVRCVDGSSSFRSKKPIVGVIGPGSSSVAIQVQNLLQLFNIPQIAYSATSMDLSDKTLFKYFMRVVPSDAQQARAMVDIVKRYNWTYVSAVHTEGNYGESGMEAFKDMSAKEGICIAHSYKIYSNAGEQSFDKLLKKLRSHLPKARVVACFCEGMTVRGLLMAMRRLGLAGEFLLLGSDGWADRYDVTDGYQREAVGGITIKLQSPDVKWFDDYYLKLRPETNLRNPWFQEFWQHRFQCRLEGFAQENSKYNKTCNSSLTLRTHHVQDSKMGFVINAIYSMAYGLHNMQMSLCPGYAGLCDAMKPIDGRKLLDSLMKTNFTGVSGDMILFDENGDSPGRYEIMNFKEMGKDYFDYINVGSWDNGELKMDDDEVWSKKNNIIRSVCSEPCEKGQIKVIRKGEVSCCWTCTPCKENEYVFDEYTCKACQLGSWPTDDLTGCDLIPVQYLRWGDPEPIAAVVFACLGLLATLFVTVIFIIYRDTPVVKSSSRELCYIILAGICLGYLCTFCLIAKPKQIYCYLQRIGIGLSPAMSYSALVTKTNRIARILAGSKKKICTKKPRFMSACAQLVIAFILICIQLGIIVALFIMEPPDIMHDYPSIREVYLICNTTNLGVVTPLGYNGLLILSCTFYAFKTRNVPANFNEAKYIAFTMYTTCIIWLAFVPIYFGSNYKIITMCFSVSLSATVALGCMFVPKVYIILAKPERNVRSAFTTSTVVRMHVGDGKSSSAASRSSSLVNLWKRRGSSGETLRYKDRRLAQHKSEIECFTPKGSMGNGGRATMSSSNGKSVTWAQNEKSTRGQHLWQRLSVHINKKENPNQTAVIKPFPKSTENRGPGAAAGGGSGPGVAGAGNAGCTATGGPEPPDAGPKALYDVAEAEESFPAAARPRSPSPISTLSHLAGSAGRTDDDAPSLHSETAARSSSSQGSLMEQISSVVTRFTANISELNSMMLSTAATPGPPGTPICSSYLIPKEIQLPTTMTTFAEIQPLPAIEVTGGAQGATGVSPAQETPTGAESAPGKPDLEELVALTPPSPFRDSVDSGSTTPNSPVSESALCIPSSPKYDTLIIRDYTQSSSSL
property-name: IC50

O=C(OCCC#Cc1ccccn1)c1cccc(Cl)c1 : < 0.05 µM
Cl.FCc1cccc(C#CCCn2nc3cc(F)cc(F)c3n2)n1 [Example 131, hydrochloride] : < 0.05 µM

Query: Tell me reported IC50 for Clc1cccc(Cl)c1-c1noc(CCC#Cc2ccccn2)n1 , tested with mGluR5 (Rattus norvegicus).
Reply: < 10 µM

Query: Lookup: IC50 / mGluR5 (Rattus norvegicus) / O=C(NCCC#Cc1cccc(CF)n1)c1c(Cl)cccc1Cl
Reply: < 10 µM

Query: For the record Fc1ccc(Cl)c2sc(CCC#Cc3ccccn3)nc12 , what value of IC50 is listed for mGluR5 (Rattus norvegicus)?
Reply: < 0.05 µM

Query: State its IC50 on mGluR5 (Rattus norvegicus): O=C(CCC#Cc1ccccn1)Nc1ccc(Cl)cc1
Reply: < 10 µM

This collection of values is drawn from patent US8883826B2.
